Target: wild type human RORγt ligand binding domain (RORyt LBD) (Homo sapiens, UniProt P51449)
Construct: His-tag (N); TurboTEV protease cleavage site (ENLYFQG) (N)
Sequence (P51449 258-518): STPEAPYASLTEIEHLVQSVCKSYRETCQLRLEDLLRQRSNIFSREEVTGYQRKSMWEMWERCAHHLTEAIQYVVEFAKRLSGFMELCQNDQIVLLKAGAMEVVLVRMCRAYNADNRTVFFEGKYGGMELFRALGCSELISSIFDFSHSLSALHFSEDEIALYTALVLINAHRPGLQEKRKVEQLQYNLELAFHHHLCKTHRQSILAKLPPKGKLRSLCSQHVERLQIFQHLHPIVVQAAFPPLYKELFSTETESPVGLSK
Assay: RORγt ThermoFluor assay (thermal shift, binding affinity KD)
pKd: −log10 of the molar value.
Classification field: enter yes for pKd values not below 9, no for values below it.

{"COMPOUND": "COc1nc2ccc(C(O)(c3ccc(F)cc3)c3cccnc3)cc2c(Cl)c1Cc1ccc(-n2cccn2)cc1 (single isomer, unassigned) [Example 158b]", "CAT": "no"}
{"COMPOUND": "Cc1nc2ccc(C(O)(c3ccc(C(F)(F)F)nc3)c3cncn3C)cc2c(Cl)c1Cc1ccc(C(F)(F)F)cc1 (stereo not drawn) [Example 26a]", "CAT": "no"}
{"COMPOUND": "COc1nc2ccc(C(N)(c3ccc(C(F)(F)F)nc3)c3cncn3C)cc2c(Cl)c1Cc1cc2ccccc2s1 (single isomer, unassigned) [Example 71c]", "CAT": "no"}

query: Check this compound for pKd at or above 9: Cn1cc(-c2nc3ccc(C(O)(c4ccc(C(F)(F)F)nc4)c4cncn4C)cc3c(C#N)c2Cc2ccccc2)cn1 (single isomer, unassigned) [Example 112c]
result: no

query: Determine whether this compound has pKd no lower than 9: COc1nc2ccc(C(O)(c3cncn3C)c3cnnn3C)cc2c(Cl)c1Cc1ccc(C(F)(F)F)cc1 (racemic) [Example 89a]
result: yes

###

Molecular target: wild type human RORγt LBD (Homo sapiens, UniProt P51449)
Construct: expressed in transfected cells; host or cells: HEK293T
Sequence (P51449 258-518): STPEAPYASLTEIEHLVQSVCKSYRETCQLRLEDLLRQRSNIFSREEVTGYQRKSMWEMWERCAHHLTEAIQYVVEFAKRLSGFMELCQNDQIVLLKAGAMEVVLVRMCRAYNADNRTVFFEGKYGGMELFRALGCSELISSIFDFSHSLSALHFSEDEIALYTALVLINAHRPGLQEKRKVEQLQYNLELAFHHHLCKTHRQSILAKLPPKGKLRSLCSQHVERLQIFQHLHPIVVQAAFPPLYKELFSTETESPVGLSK
Experiment: RORγt (LBD) Reporter Assay (GAL4-luciferase, HEK293T cells)
Type: cell-based
Conditions: HEK-293T, read-out: RORγt (LBD) Reporter Assay, % inhibition @ 6 µM, 6 µM compound concentration
Kindly state inhibition at 6 µM for each of the entries shown.
Numbers only, in %.

Before answering, review these 6 worked examples.
{"COMPOUND": "COc1nc2ccc(C(O)(c3cnnn3C)c3cnnn3C)cc2c(Cl)c1Cc1ccc(C(F)(F)F)cc1 [Example 12]", "ASSAY_READOUT": "inhibition at 6 µM", "UNIT_INFO": "%", "RESULT": 99}
{"COMPOUND": "COc1nc2ccc(C(O)(c3ccccc3)C3CCN(C(C)=O)CC3)cc2c(Cl)c1Cc1ccc(-n2ccnc2)cc1 (stereo not shown) [Example 16a]", "ASSAY_READOUT": "inhibition at 6 µM", "UNIT_INFO": "%", "RESULT": 101}
{"COMPOUND": "Cn1cncc1C(O)(c1ccc2nc(C(F)(F)F)c(Cc3ccccc3)c(C#N)c2c1)c1ccccn1 (single isomer, unassigned) [Example 99b]", "ASSAY_READOUT": "inhibition at 6 µM", "UNIT_INFO": "%", "RESULT": 86}
{"COMPOUND": "COc1nc2ccc(C(O)(c3cnnn3C)c3cnc(C)n3C)cc2c(Cl)c1Cc1ccc(C(F)(F)F)nc1 (stereo not shown) [Example 43a]", "ASSAY_READOUT": "inhibition at 6 µM", "UNIT_INFO": "%", "RESULT": 98}
{"COMPOUND": "COc1nc2ccc(C(O)(c3ccc(Cl)cc3)c3cncn3C)cc2c(C#N)c1Cc1ccc(C(F)(F)F)cc1 (racemic) [Example 55a]", "ASSAY_READOUT": "inhibition at 6 µM", "UNIT_INFO": "%", "RESULT": 104}
{"COMPOUND": "COc1nc2ccc(C(O)(c3ccc(C#N)cc3)c3cncn3C)cc2c(Cl)c1Cc1ccc(C(F)(F)F)nc1 (stereo not shown) [Example 38a]", "ASSAY_READOUT": "inhibition at 6 µM", "UNIT_INFO": "%", "RESULT": 100}

Consider the record given below.
// inhibition at 6 µM lookup, compound = COc1nc2ccc(C(O)(c3ccc(C#N)cc3)c3cncn3C)cc2c(Cl)c1Cc1ccc(C(F)(F)F)nc1 (single isomer, unassigned) [Example 38b] , result: 94

###

Please respond with reported Kd for every item in the list.
Molecular target: wild type human RORγt ligand binding domain (RORyt LBD) (Homo sapiens)
Construct: His-tag (N); TurboTEV protease cleavage site (ENLYFQG) (N); made in house; host or cells: E. coli (pHIS1, modified pET vector)
Experiment: RORγt ThermoFluor assay (thermal shift, binding affinity KD)
Give bare numbers, in nM.

Check out these entries, answers already filled in.
{"COMPOUND": "COc1nc2ccc(C(O)(c3ccc(C)nc3C)c3cnnn3C)cc2c(Cl)c1Cc1ccc(C)cc1 (single isomer, unassigned) [Example 20b]", "Kd, nM": 390}
{"COMPOUND": "COc1nc2ccc(C(O)(c3cnnn3C)c3cnc(C)n3C)cc2c(Cl)c1Cc1ccc(C(F)(F)F)nc1 (centres unmarked) [Example 43a]", "Kd, nM": 1}
{"COMPOUND": "COc1nc2ccc(C(O)(c3sc(C)nc3C)c3cnnn3C)cc2c(Cl)c1Cc1ccc(-n2cccn2)cc1 (centres unmarked) [Example 21a]", "Kd, nM": 0.31}

Working through the 3 compounds below one at a time, give Kd for each.
1. Cn1cncc1C(O)(c1ccc(C(F)(F)F)nc1)c1ccc2nc(Cl)c(Cc3ccccc3)c(Cl)c2c1 (centres unmarked) [Example 109]
2. COCCN(C)c1nc2ccc(C(O)(c3ccc(Cl)cc3)c3cncn3C)cc2c(Cl)c1Cc1ccc(-n2cccn2)cc1 (centres unmarked) [Example 127]
3. COc1nc2ccc(C(O)(c3ccc(Cl)cc3)c3cncn3C)cc2c(C#N)c1Cc1ccc(C(F)(F)F)cc1 (racemic) [Example 55a]

result:
1. 14
2. 350
3. 11

###

Molecular target: wild type human RORγt LBD (Homo sapiens)
Construct: expressed in transfected cells; host or cells: HEK293T
Assay: RORγt (LBD) Reporter Assay (GAL4-luciferase, HEK293T cells)
Assay type: cell-based
Settings: HEK293T cells
pIC50: −log10 of the molar value.
ASSAY_READOUT: pIC50

Previously resolved entries follow.
{"MOLECULE": "Cc1ccc(C(O)(c2ccc3nc(N4CCC4)c(Cc4ccc(-n5cccn5)cc4)c(Cl)c3c2)c2cnnn2C)c(C)n1 (single isomer, unassigned) [Example 141b]", "EXPERIMENTAL_TARGET": "wild type human RORγt LBD (Homo sapiens)", "RESULT": "< 5.22"}
{"MOLECULE": "COc1ccc(C(O)(c2cccnc2)c2ccc3nc(OC)c(Cc4ccc(-n5cccn5)cc4)c(Cl)c3c2)cc1OC (stereo not drawn) [Example 159a]", "EXPERIMENTAL_TARGET": "wild type human RORγt LBD (Homo sapiens)", "RESULT": 6.92}

Consider the additional molecule presented here.
Lab book: pIC50 of Cn1cncc1C(O)(c1ccc(C(F)(F)F)nc1)c1ccc2nc(N3CCOCC3)c(Cc3ccc(-n4cccn4)cc3)c(Cl)c2c1 (single isomer, unassigned) [Example 146c] noted as ~5.70

###

Molecular target: wild type human RORγt LBD (Homo sapiens, UniProt P51449)
Construct: expressed in transfected cells; host or cells: HEK293T
Sequence (P51449 258-518): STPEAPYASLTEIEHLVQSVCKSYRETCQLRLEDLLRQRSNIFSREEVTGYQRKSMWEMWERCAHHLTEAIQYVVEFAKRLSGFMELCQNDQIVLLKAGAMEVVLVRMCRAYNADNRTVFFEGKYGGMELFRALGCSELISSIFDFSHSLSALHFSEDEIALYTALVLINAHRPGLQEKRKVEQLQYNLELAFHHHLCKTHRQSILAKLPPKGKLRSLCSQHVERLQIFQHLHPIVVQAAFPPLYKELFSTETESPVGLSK
Assay: RORγt (LBD) Reporter Assay (GAL4-luciferase, HEK293T cells)
Format: cell-based
Details: HEK-293T, read-out: RORγt (LBD) Reporter Assay, % inhibition @ 6 µM, 6 µM compound concentration; HEK293T cells
ASSAY_READOUT: inhibition at 6 µM (%)
Numbers only, in %.

Use the examples below as a reference point.
{"COMPOUND": "COc1nc2ccc(C(O)(c3oc(C)nc3C)c3cnnn3C)cc2c(Cl)c1Cc1ccc(C(F)(F)F)cc1 (stereo not drawn) [Example 156a]", "UNIT_INFO": "%", "inhibition at 6 µM": 94}
{"COMPOUND": "Cc1cc(C(O)(c2ccc(Cl)cc2)c2cncn2C)cc2c(Cl)c(Cc3ccc(-n4cccn4)cc3)c(N3CCC3)nc12 (single isomer, unassigned) [Example 136b]", "UNIT_INFO": "%", "inhibition at 6 µM": 83}
{"COMPOUND": "Cn1cncc1C(O)(c1ccc(C(F)(F)F)nc1)c1ccc2nc(-c3nccn3C)c(Cc3ccccc3)c(Cl)c2c1 (single isomer, unassigned) [Example 113c]", "UNIT_INFO": "%", "inhibition at 6 µM": 90}
{"COMPOUND": "Cc1ccc(C(O)(c2ccc3nc(N4CC(F)(F)C4)c(Cc4ccc(C(F)(F)F)cc4)c(Cl)c3c2)c2cnnn2C)c(C)n1 (single isomer, unassigned) [Example 148b]", "UNIT_INFO": "%", "inhibition at 6 µM": 97}
{"COMPOUND": "COc1nc2ccc(C(O)(c3ccc(F)cc3)c3cccnc3)cc2c(Cl)c1Cc1ccc(-n2cccn2)cc1 (single isomer, unassigned) [Example 158b]", "UNIT_INFO": "%", "inhibition at 6 µM": 107}
{"COMPOUND": "Cc1cc(C(O)(c2ccc(Cl)cc2)c2cncn2C)cc2c(Cl)c(Cc3ccc(-n4cccn4)cc3)c(S(C)(=O)=O)nc12 (stereo not drawn) [Example 142]", "UNIT_INFO": "%", "inhibition at 6 µM": 87}

Below are some compounds; for each one, tell me its inhibition at 6 µM.
1. Cc1ccc(C(O)(c2ccc3nc(Cl)c(Cc4ccc(C(F)(F)F)cc4)c(NC4CC4)c3c2)c2cnnn2C)c(C)n1 (stereo not drawn) [Example 144a]
2. CNC(c1ccc2nc(OC)c(Cc3ccc(C(F)(F)F)cc3)c(Cl)c2c1)(c1ccc(C)nc1C)c1cnnn1C (single isomer, unassigned) [Example 121b]
3. COc1nc2ccc(C(O)(c3cncn3C)c3cncn3C)cc2c(Cl)c1Cc1ccc(C(F)(F)F)cc1 [Example 149]
4. COc1nc2ccc(C(O)(c3ccc(F)cc3)C3CCN(C(C)=O)CC3)cc2c(Cl)c1Cc1ccc(-n2cccn2)cc1 (single isomer, unassigned) [Example 157b]

result:
1. 99
2. 98
3. 96
4. 102
